Test: Equilibrium mole fraction solubility of RST in {PEG400
Assay type: physicochemical
Conditions: PEG400
Measurement label: solubility at 3 days (µg/mL)
Answer in µg/mL, number only, no unit symbol.

Endpoint output: solubility at 3 days of CC(C)c1nc(N(C)S(C)(=O)=O)nc(-c2ccc(F)cc2)c1/C=C/[C@@H](O)C[C@@H](O)CC(=O)[O-].CC(C)c1nc(N(C)S(C)(=O)=O)nc(-c2ccc(F)cc2)c1/C=C/[C@@H](O)C[C@@H](O)CC(=O)[O-].[Ca+2] . Value?
6500

###

Assay: Equilibrium mole fraction solubility of RST in {PEG400
Format: physicochemical
Settings: PEG400 + water cosolvent mixture
Measurement label: solubility at 3 days (µg/mL)
A number alone suffices; assume µg/mL.

# solubility at 3 days lookup, item CC(C)c1nc(N(C)S(C)(=O)=O)nc(-c2ccc(F)cc2)c1/C=C/[C@@H](O)C[C@@H](O)CC(=O)[O-].CC(C)c1nc(N(C)S(C)(=O)=O)nc(-c2ccc(F)cc2)c1/C=C/[C@@H](O)C[C@@H](O)CC(=O)[O-].[Ca+2] [RST]
4140

Where do these numbers come from? They come from paper PMC10099431.
